The reported numbers originate from the supplement of paper PMC7877785.

- protocol_text: self-splicing fitness, log relative to wild type (ln ratio); higher = more splicing; Tetrahymena group I intron in knt gene, E. coli kanamycin selection, DiMSum; sequences stand for … in CUCUCU…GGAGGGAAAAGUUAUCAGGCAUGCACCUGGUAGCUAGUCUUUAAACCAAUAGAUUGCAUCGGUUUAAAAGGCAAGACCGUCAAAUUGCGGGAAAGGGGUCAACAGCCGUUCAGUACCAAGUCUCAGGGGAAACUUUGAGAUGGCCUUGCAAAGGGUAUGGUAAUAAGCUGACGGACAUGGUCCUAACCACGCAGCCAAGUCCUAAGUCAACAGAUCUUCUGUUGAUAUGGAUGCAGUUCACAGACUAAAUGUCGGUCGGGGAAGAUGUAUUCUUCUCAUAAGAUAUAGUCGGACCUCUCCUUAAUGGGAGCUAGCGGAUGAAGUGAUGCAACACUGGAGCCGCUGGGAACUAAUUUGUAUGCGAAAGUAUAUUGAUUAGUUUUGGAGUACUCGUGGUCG;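 also: selection with 25 µg/mL kanamycin versus none on LB agar overnight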
- condition_set: 30 °C
parameter_measured: self-splicing fitness (ln)
Give bare numbers.

sequence=CGGAAGCAAUAUUACGUUAU parameter_measured="self-splicing fitness (ln)" numeric_value=-3.02
sequence=GAGCAGCAAUAUUACGGUGC parameter_measured="self-splicing fitness (ln)" numeric_value=-2.98

Query block: # query: self-splicing fitness (ln) of entry GCCCAGCAAUAUUACGGUCU
Result block: -1.97
